log10 LC50 at 24 h by entry:
test: Brine shrimp lethality test (BSLT); assay type: in vivo; conditions: Artemia salina (brine shrimp) larvae, in vivo, other: compound diluted in the seawater holding the larvae; brine shrimp larvae, 24 h, triplicate
MEASURED_PARAMETER: log10 LC50 at 24 h (log10 of the value in µM)

| SMILES_STR | log10 LC50 at 24 h |
| --- | --- |
| CCN(CC)Cc1cc(/C=C2\CCC/C(=C\c3ccc(F)cc3)C2=O)cc(OC)c1O | 1.95 |
| CCN(CC)Cc1cc(/C=C2\CCC/C(=C\c3ccccc3)C2=O)cc(OC)c1O | 2.96 |
| CCN(CC)Cc1cc(/C=C2\CCC/C(=C\c3ccc(OC)cc3)C2=O)cc(OC)c1O | 1.90 |
| CCN(CC)Cc1cc(/C=C2\CCC/C(=C\c3ccc(C)cc3)C2=O)cc(OC)c1O | 3.23 |
| COc1cc(/C=C2\CCC/C(=C\c3ccccc3)C2=O)ccc1O | 2.29 |
| COc1cc(/C=C2\CCC/C(=C\c3ccc(C)cc3)C2=O)ccc1O | 1.90 |
| CCN(CC)Cc1cc(/C=C2\CCC/C(=C\c3ccc(Cl)cc3)C2=O)cc(OC)c1O | 1.47 |
| COc1ccc(/C=C2\CCC/C(=C\c3ccc(O)c(OC)c3)C2=O)cc1 | 2.51 |
| COc1cc(/C=C2\CCC/C(=C\c3ccc(Cl)cc3)C2=O)ccc1O | 2.31 |
| COc1cc(/C=C2\CCC/C(=C\c3ccc(F)cc3)C2=O)ccc1O | 2.25 |

###

test system: Vero cell lines (ATCC CCL-81); assay: MTT proliferation assay, Vero cell lines (normal cells); assay type: cell-based, African green monkey; conditions: 48 h incubation, mean ± SD (n = 3)

| COMPOUND | TGT | IC50 |
| --- | --- | --- |
| N.N.[Cl][Pt][Cl] [Cisplatin, reference compound] | Vero cell lines (ATCC CCL-81) | 84.7 µM |

###

test system: HeLa cell lines (human cervix carcinoma, ATCC CCL-2); test: MTT proliferation assay, HeLa cell lines; type: cell-based; conditions: 48 h incubation, mean ± SD (n = 3)
MEASURED_PARAMETER: IC50 (µM)

| MOLECULE | ENDPOINT_VALUE |
| --- | --- |
| N.N.[Cl][Pt][Cl] [Cisplatin, reference compound] | 67.6 |
